- ASSAYED TARGET: T1, histidine-tagged human Siglec-7 (NovoProtein) (human, UniProt Q9Y286 19-353)
- T1 construct: Bought protein; also called recombinant human Siglec-7; recombinant Siglec-7; not shown: histidine tag
- T1 sequence (Q9Y286 19-353 limits assumed): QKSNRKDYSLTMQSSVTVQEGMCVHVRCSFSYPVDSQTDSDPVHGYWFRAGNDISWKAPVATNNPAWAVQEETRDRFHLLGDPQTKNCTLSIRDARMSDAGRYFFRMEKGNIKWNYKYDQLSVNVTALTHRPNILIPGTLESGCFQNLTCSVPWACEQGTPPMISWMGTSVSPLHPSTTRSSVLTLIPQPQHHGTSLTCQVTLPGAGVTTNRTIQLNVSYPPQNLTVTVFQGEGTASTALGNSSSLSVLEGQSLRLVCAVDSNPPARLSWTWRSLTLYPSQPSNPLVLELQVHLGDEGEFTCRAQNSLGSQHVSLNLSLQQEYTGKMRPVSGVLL
- PROTOCOL DESCRIPTION: BLI, antibody captured
TEST READOUT: pKd
API: returns pKd as number; meaning -log10 of concentration in mol/L.

These recorded examples may help you get a feel for the data.
S7AB-H8.39 (antibody, V domains shown) VH: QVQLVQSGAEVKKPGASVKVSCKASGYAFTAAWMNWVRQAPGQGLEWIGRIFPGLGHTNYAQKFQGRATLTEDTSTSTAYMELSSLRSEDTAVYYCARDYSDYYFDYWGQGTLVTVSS VL: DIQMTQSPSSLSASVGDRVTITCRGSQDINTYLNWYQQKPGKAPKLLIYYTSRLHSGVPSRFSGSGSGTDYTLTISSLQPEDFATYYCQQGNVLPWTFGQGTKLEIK : 9.67
S7AB-H8.32 (antibody, V domains shown) VH: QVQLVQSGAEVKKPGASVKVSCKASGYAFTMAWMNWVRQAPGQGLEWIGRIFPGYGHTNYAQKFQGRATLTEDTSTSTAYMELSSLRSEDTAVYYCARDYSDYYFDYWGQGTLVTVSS VL: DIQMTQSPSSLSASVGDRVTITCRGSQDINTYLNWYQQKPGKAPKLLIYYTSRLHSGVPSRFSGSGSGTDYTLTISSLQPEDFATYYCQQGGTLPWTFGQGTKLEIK : 9.45

Input: Report pKd for S7AB-H8.26 (antibody, V domains shown) VH: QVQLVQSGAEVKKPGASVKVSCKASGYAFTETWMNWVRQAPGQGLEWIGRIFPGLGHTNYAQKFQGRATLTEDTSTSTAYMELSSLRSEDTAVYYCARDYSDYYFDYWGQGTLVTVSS VL: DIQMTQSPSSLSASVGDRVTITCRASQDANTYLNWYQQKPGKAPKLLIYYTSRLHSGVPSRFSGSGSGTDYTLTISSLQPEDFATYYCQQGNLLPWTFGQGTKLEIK please.
Output: 9.40
